These entries and their values trace back to PubChem BioAssay (NCI).

System: M14 melanoma
assay.notes: NCI tumour cell line growth inhibition, 48 h; in the data active = GI50 below about 0.43 µM; inactive = the rest
Outcomes: True = active, False = inactive

INSERT INTO results (compound, cat) VALUES
  ('COc1ccc2nc(NNC(=O)c3cnccn3)c3cccn3c2c1', 'True'),
  ('Clc1ccc(CCC(Cn2ccnc2)Sc2c(Cl)cccc2Cl)cc1 (centres undefined)', 'False'),
  ('[O-]c1ccccc1/C=N/c1nccs1.[O-]c1ccccc1/C=N/c1nccs1.[O]=[U+2]=[O]', 'False'),
  ('COc1cc(-c2nc3ccccc3s2)ccc1OCCCCCOc1cc2c(cc1OC)C(=O)N1CCC[C@H]1C=N2', 'True');

* * *

Tested on: NCI-H226 lung
assay.notes: NCI tumour cell line growth inhibition, 48 h
readout.kind: GI50

INSERT INTO results (molecule, readout_kind, data_value) VALUES
  ('CS(=O)(=O)Nc1cc(-c2ccc3ncnc(Nc4ccc5c(cnn5Cc5cccc(F)c5)c4)c3c2)cnc1Cl', 'GI50', '1.11 µM'),
  ('COc1ccc(CCn2c3c(c4c(O)cccc42)C(=O)c2ccccc2-3)cc1OC', 'GI50', '> 56.1 µM'),
  ('COc1ccc(C2CC(c3cc(Cl)c(C)cc3O)=NN2c2ccc(S(N)(=O)=O)cc2)cc1OC (centres undefined)', 'GI50', '5.62 µM'),
  ('O=C1/C(=C/c2ccc(Cl)cc2)COc2ccc(O)cc21', 'GI50', '2.68 µM'),
  ('CCCCCCCCc1cc[n+](CC(=O)c2ccc(Br)cc2)cc1', 'GI50', '1.51 µM'),
  ('CCC(Cc1cnc2nc(N)nc(N)c2n1)c1ccc(C(=O)NC(CCC(=O)O)C(=O)O)cc1 (centres undefined)', 'GI50', '> 100 µM'),
  ('Cc1cc2c([nH]1)CSc1cc(S(=O)(=O)c3ccccc3)c(=O)[nH]c1-2', 'GI50', '14.6 µM'),
  ('COc1cc(C2=NNC(c3ccc(N(C)C)cc3)C2)cc(OC)c1OC (centres undefined)', 'GI50', '54.7 µM'),
  ('C=C1C(=O)O[C@H]2[C@H]1CC/C(COC(=O)CCCCCCC(=O)OC/C1=C/CC[C@@]3(C)O[C@H]3[C@H]3OC(=O)C(=C)[C@@H]3CC1)=C\CC[C@@]1(C)O[C@@H]21', 'GI50', '2.39 µM');

* * *

Listing: TGI of selected compounds
System: SW-620 colon
assay.notes: NCI tumour cell line growth inhibition, 48 h
readout.kind: TGI

INSERT INTO assay_data (compound, data_value) VALUES
  ('CCOC(=O)CCC(C(=O)OCC)n1nnc2ccc(Nc3c(C)[n+]([O-])c4ccc(Cl)cc4[n+]3[O-])cc21 (configuration not stated)', '> 100 µM'),
  ('COc1ccc(/C=C(\C#N)c2nc3ccccc3c(=O)[nH]2)cc1', '> 100 µM'),
  ('N#CCCOc1cccc(C2(N3CCCCC3)CCCCC2)c1', '> 100 µM'),
  ('O=C(c1ccccc1)C(C(=O)c1ccccc1)c1nc2ccccc2sc1=O', '> 25 µM'),
  ('Cc1ccc(C2(c3ccc(C)cc3)SC(=C(C#N)C#N)c3ccccc32)cc1', '> 100 µM'),
  ('Cc1c2ccccc2cc2nc3ccccc3n12', '> 10 µM'),
  ('c1ccc(-c2cc(-c3cccs3)c(-c3cccs3)s2)cc1', '> 100 µM'),
  ('CN(C)CCNC(=O)c1ccc(Cl)c2ccc(-c3ccccc3)nc12', '14.2 µM'),
  ('C/C(=N\O)c1ccc2cc(Br)c3ccccc3c2c1', '> 100 µM'),
  ('c1ccc(CSc2nc(N3CCCCC3)c3cn[nH]c3n2)cc1', '44.5 µM'),
  ('COc1ccc2c(c1)[n+]([O-])c(-c1c(Cl)cccc1Cl)c(N)[n+]2[O-]', '> 100 µM'),
  ('CCCc1c(Cl)nc(Cl)nc1Cl', '12.7 µM');

* * *

Test system: HT29 colon
assay.notes: NCI tumour cell line growth inhibition, 48 h
Readings of TGI for the listed molecules
readout.kind: TGI (µM)

INSERT INTO assay_data (structure_smiles_string, subject_of_test, relational_operator, data_value) VALUES
  ('COc1ccc2c(c1)[n+]([O-])c(-c1c(Cl)cccc1Cl)c(N)[n+]2[O-]', 'HT29 colon', '>', 100),
  ('COc1ccc2c(c1)C(=O)c1c-2n(CCCCl)c(=O)c2cc(OC)c(OC)cc12', 'HT29 colon', '>', 100),
  ('COc1ccc(NC(=S)N/N=C/c2cccc(C)n2)cc1', 'HT29 colon', '=', 14.9),
  ('C/C=C/[C@@H]1[C@H]2C(=O)[C@]3(Cl)[C@@H](/C=C/C)[C@@H]3C(=O)[C@@]12Cl', 'HT29 colon', '>', 100),
  ('NCCOc1ncccc1/C=C1\c2ccccc2-c2ccc(F)cc21', 'HT29 colon', '=', 2.8);

* * *

Test system: TK-10 renal
assay.notes: NCI tumour cell line growth inhibition, 48 h
As shown below, each of these compounds has a reported TGI value.
readout.kind: TGI

INSERT INTO results (compound, readout_kind, data_value) VALUES
  ('COC(=O)c1c(OC(C)=O)ccc2c1c1c(OC(C)=O)c3ccccc3c(OC(C)=O)c1n2C', 'TGI', '67.8 µM'),
  ('CC(C)C1=C(O)C2=C(C(=O)C1=O)C1(C)CCCC(C)(C)C1CC2O (configuration not stated)', 'TGI', '> 100 µM'),
  ('N#Cc1c(-c2ccccc2)cc(-c2ccccc2)n(CC(=O)NO)c1=O', 'TGI', '> 100 µM'),
  ('Nc1ncnc2c1ncn2C1OC(CSCc2ccc(Cl)cc2)C(O)C1O (configuration not stated)', 'TGI', '> 100 µM'),
  ('O=C(O)C1[C@@H](C(=O)O)C1(Br)CBr (some centres not stated)', 'TGI', '> 100 µM'),
  ('COc1ccc(-c2cc(-c3ccccc3)nc(/N=C\c3ccccc3)n2)c(O)c1', 'TGI', '> 100 µM'),
  ('O=S1CCN(Cc2ccc(-c3ccc4ncnc(Nc5ccc(OCc6cccc(F)c6)c(Cl)c5)c4c3)o2)CC1', 'TGI', '> 16.3 µM'),
  ('C=CCNC(=O)N1CC(C)C(=O)Nc2ccccc21 (configuration not stated)', 'TGI', '> 100 µM'),
  ('CC(=O)c1sc2c(c1OC(=O)c1ccc(Cl)cc1)c(=O)n(-c1ccccc1)c(=S)n2-c1ccccc1', 'TGI', '87.4 µM'),
  ('c1ccc(CNCCN2CCNCC2)nc1', 'TGI', '> 100 µM'),
  ('CS(=O)(=O)Nc1cc(-c2ccc3ncnc(Nc4ccc5c(cnn5Cc5cccc(F)c5)c4)c3c2)cnc1Cl', 'TGI', '2.19 µM'),
  ('Cc1c2ccccc2cc2nc3ccccc3n12', 'TGI', '> 10 µM');

* * *

Test system: A498 renal
assay.notes: NCI tumour cell line growth inhibition, 48 h
readout.kind: TGI (µM)

INSERT INTO measurements (compound, relational_operator, data_value) VALUES
  ('CCCc1c(Cl)nc(Cl)nc1Cl', '=', 34.7),
  ('Nc1ncnc2c1ncn2C1OC(CSCc2ccc(Cl)cc2)C(O)C1O (configuration not stated)', '=', 96),
  ('C=C1CC(Cn2ccc(=O)[nH]c2=O)(c2ccc(OC)cc2)OC1=O (configuration not stated)', '=', 31.6),
  ('Cc1ccc(/C=N/Nc2ccccn2)s1', '>', 100),
  ('C[C@H]1COC(c2ccccn2)=N1', '>', 100),
  ('O=c1c2ccccc2nc2n1CCc1c-2[nH]c2ccc(Br)cc12', '>', 100),
  ('COc1ccc(/C=C/c2nnc(/C=C/c3ccc(OC)c(OC)c3)o2)cc1OC', '=', 9.1),
  ('CC1CSC(=S)N1C(=O)N1C(=S)SCC1C (configuration not stated)', '=', 60.7),
  ('Oc1ccc(-c2nn3c(CCCCCCCCc4nnc5sc(-c6ccc(O)cc6)nn45)nnc3s2)cc1', '>', 100),
  ('O=C(O)C1[C@@H](C(=O)O)C1(Br)CBr (some centres not stated)', '>', 100),
  ('NC(=O)SCC(=O)Nc1ccc2cccc3c2c1CC3', '>', 100),
  ('CCN(Cc1ccncc1)c1ccc(CO)c(Cl)c1', '=', 0.203),
  ('Cc1ccccc1-n1c(=O)sc2c(=O)n(-c3ccccc3)c(=S)[nH]c21', '>', 100),
  ('COc1ccc(/C=C(\C#N)c2ccc(OC)cc2)cc1', '>', 100),
  ('O=S1CCN(Cc2ccc(-c3ccc4ncnc(Nc5ccc(OCc6ccccc6)c(Cl)c5)c4c3)o2)CC1', '=', 24.3),
  ('COc1cc(-c2n[nH]nc2-c2ccc3c(c2)OCCO3)cc(OC)c1OC', '=', 1.5),
  ('N=c1oc2c(O)c(O)ccc2cc1C(N)=O', '>', 100),
  ('COc1ccc2c(c1)CC[C@@H]1[C@@H]2CC[C@]2(C)C(=O)/C(=C/c3ccc(C#N)cc3)C[C@@H]12', '>', 100),
  ('O=C(OC1CC(n2cc(F)c(=O)[nH]c2=O)OC1CSC(=O)c1ccccc1)c1ccccc1 (configuration not stated)', '>', 100),
  ('Cc1ccc(NC(=O)OCC(COc2ccc(Cl)cc2)OC(=O)Nc2ccc(C)cc2)cc1 (configuration not stated)', '=', 60.4),
  ('COc1cc(C(=O)/C=C/c2ccc(OCCCCCC[P+](c3ccccc3)(c3ccccc3)c3ccccc3)cc2)cc(OC)c1OC', '=', 1.97),
  ('COc1ccc2c(c1)[n+]([O-])c(-c1c(Cl)cccc1Cl)c(N)[n+]2[O-]', '>', 100);
